Where do these numbers come from? They come from patent US5378838A.

Measured pIC50, listed per entry.
# EXPERIMENTAL TARGET: CCK receptor (brain) (Cavia porcellus, UniProt H0VZC5)
# Construct: the cortex was removed and homogenized in 25 mL ice-cold 0.32M sucrose; from tissue; host or cells: cortex P2 membranes of male Hartley guinea pigs
# Sequence (H0VZC5 1-426): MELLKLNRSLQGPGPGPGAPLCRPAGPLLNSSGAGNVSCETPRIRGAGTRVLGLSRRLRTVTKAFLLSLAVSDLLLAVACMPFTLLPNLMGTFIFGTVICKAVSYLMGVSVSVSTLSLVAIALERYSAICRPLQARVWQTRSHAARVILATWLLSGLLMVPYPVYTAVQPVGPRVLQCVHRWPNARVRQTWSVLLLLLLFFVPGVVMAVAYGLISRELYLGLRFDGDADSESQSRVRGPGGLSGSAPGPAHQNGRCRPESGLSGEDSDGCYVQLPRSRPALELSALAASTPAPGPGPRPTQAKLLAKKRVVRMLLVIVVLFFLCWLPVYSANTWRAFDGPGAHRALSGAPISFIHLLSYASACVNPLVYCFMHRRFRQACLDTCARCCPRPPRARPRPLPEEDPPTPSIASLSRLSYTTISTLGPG
# PROTOCOL SUMMARY: CCK Receptor Binding (Brain), inhibition of 125I-CCK-8 binding
# Parameters: species or system guinea pig (male Hartley)
# CONDITION SET: guinea pig cortex, 50 pM 125I-CCK-8, pH 6.5, 25° C., 2 hours
pIC50: −log10 of the molar value.
ASSAY READOUT: pIC50

[[record]]
molecule = "COC(=O)C1(N)CCc2cc(NC(=O)N[C@@H]3N=C(c4ccccc4)c4ccccc4N(C)C3=O)ccc2C1 (some centres unmarked)"
assay_readout = "pIC50"
inequality_symbol = "<"
numeric_result = 5.52

[[record]]
molecule = "CN1C(=O)[C@H](NC(=O)Nc2cccc3c2CCC(N)(C(=O)O)C3)N=C(c2ccccc2)c2ccccc21 (some centres unmarked)"
assay_readout = "pIC50"
inequality_symbol = "<"
numeric_result = 5.52

[[record]]
molecule = "CN1C(=O)[C@H](NC(=O)Nc2ccc3c(c2)CC(N)(C(=O)O)CC3)N=C(c2ccccc2)c2ccccc21 (some centres unmarked)"
assay_readout = "pIC50"
inequality_symbol = "="
numeric_result = 7.55

[[record]]
molecule = "CN1C(=O)[C@H](NC(=O)Nc2cccc([C@H](N)C(=O)O)c2)N=C(c2ccccc2)c2ccccc21"
assay_readout = "pIC50"
inequality_symbol = "="
numeric_result = 5.88

[[record]]
molecule = "COC(=O)CC(N)c1cccc(NC(=O)N[C@@H]2N=C(c3ccccc3)c3ccccc3N(C)C2=O)c1 (some centres unmarked)"
assay_readout = "pIC50"
inequality_symbol = "<"
numeric_result = 5.52

[[record]]
molecule = "CN1C(=O)[C@H](NC(=O)Nc2cccc(C(N)CC(=O)O)c2)N=C(c2ccccc2)c2ccccc21 (some centres unmarked)"
assay_readout = "pIC50"
inequality_symbol = "<"
numeric_result = 5.52

[[record]]
molecule = "COC(=O)C1(NC(=O)OC(C)(C)C)CCc2cc(NC(=O)N[C@@H]3N=C(c4ccccc4)c4ccccc4N(C)C3=O)ccc2C1 (some centres unmarked)"
assay_readout = "pIC50"
inequality_symbol = "<"
numeric_result = 5.52

[[record]]
molecule = "COC(=O)C1(NC(=O)OC(C)(C)C)CCc2cccc(NC(=O)N[C@@H]3N=C(c4ccccc4)c4ccccc4N(C)C3=O)c2C1 (some centres unmarked)"
assay_readout = "pIC50"
inequality_symbol = "="
numeric_result = 6.19

[[record]]
molecule = "CN1C(=O)[C@H](NC(=O)Nc2cccc([C@@H](N)C(=O)O)c2)N=C(c2ccccc2)c2ccccc21"
assay_readout = "pIC50"
inequality_symbol = "="
numeric_result = 5.44

[[record]]
molecule = "COC(=O)[C@@H](NC(=O)OC(C)(C)C)c1cccc(NC(=O)N[C@@H]2N=C(c3ccccc3)c3ccccc3N(C)C2=O)c1"
assay_readout = "pIC50"
inequality_symbol = "="
numeric_result = 5.70

[[record]]
molecule = "COC(=O)[C@H](Cc1cccc(NC(=O)N[C@@H]2N=C(c3ccccc3)c3ccccc3N(C)C2=O)c1)NC(=O)OC(C)(C)C"
assay_readout = "pIC50"
inequality_symbol = "="
numeric_result = 7.53

[[record]]
molecule = "COC(=O)C1(N)CCc2ccc(NC(=O)N[C@@H]3N=C(c4ccccc4)c4ccccc4N(C)C3=O)cc2C1 (some centres unmarked)"
assay_readout = "pIC50"
inequality_symbol = "="
numeric_result = 6.83

[[record]]
molecule = "CN1C(=O)[C@H](NC(=O)Nc2ccc3c(c2)CCC(N)(C(=O)O)C3)N=C(c2ccccc2)c2ccccc21 (some centres unmarked)"
assay_readout = "pIC50"
inequality_symbol = "="
numeric_result = 5.45

[[record]]
molecule = "COC(=O)CC(NC(=O)OC(C)(C)C)c1cccc(NC(=O)N[C@@H]2N=C(c3ccccc3)c3ccccc3N(C)C2=O)c1 (some centres unmarked)"
assay_readout = "pIC50"
inequality_symbol = "="
numeric_result = 6.41


###

# EXPERIMENTAL TARGET: CCK receptor (pancreas) (Rattus norvegicus, UniProt P30551)
# Construct: The whole pancreas was dissected free of fat tissue and was homogenized; from tissue; host or cells: whole pancreas membranes of male Sprague-Dawley rats
# Sequence (P30551 whole entry): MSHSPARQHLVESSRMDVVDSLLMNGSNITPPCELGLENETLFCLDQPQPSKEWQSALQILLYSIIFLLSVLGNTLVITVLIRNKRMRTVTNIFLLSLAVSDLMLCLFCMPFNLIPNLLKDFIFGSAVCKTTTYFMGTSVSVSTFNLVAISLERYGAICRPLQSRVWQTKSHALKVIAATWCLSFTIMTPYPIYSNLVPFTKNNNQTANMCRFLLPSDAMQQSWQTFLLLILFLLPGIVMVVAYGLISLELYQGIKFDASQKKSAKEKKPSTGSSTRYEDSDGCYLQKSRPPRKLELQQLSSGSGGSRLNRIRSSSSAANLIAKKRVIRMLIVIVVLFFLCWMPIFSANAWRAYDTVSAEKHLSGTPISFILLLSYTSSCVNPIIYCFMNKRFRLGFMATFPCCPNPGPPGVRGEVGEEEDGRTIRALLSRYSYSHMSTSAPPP
# PROTOCOL SUMMARY: CCK Receptor Binding (Pancreas), inhibition of 125I-CCK-8 binding
# Design: species or system rat (male Sprague-Dawley)
# CONDITION SET: rat pancreas, 50 pM 125I-CCK-8, pH 6.5, 25° C., 2 hours; read-out: IC50 125I-CCK Pancreas
ASSAY READOUT: IC50 (nM)

[[record]]
compound_structure_string = "CN1C(=O)[C@H](NC(=O)Nc2cccc(C[C@H](N)C(=O)O)c2)N=C(C2CCCCC2)c2ccccc21"
numeric_result = 1790

[[record]]
compound_structure_string = "COC(=O)[C@@H](N)Cc1cccc(NC(=O)N[C@@H]2N=C(C3CCCCC3)c3ccccc3N(C)C2=O)c1"
numeric_result = 924

[[record]]
compound_structure_string = "COC(=O)[C@H](Cc1cccc(NC(=O)N[C@@H]2N=C(C3CCCCC3)c3ccccc3N(C)C2=O)c1)NC(=O)OC(C)(C)C"
numeric_result = 961

